Test system: DU-145
Assay: Cytotoxicity against human DU145 cells after 48 hrs by SRB assay
Assay type: functional, cell-based
Conditions: Homo sapiens, DU-145, 48 h; read-out: GI50
property label: GI50 (µM)
Quick reminder: number only, in µM, skip the unit.

Consider the following illustrative entries.
[
  {
    "compound": "C/C=C1\\NC(=O)[C@H](Cc2ccccc2)NC(=O)[C@@H](C(C)C)NC(=O)[C@@H]([C@H](C)CC)NC(=O)[C@H](NC(=O)[C@H](NC(=O)[C@H](CCCN)NC(=O)[C@H]2CCCN2C(=O)[C@H](NC(=O)[C@@H](NC(=O)[C@@H](NC(=O)[C@H](NC(=O)C2CCC(C)CC2)C(C)C)[C@@H](C)O)C(C)C)C(C)C)[C@H](C)CC)[C@H](C)OC(=O)[C@H](C(C)C)NC1=O (stereo not given in full)",
    "recorded number": 0.69
  },
  {
    "compound": "C/C=C1\\NC(=O)[C@H](Cc2c(F)c(F)c(F)c(F)c2F)NC(=O)[C@@H](C(C)C)NC(=O)[C@@H]([C@H](C)CC)NC(=O)[C@H](NC(=O)[C@H](NC(=O)[C@H](CCCN)NC(=O)[C@H]2CCCN2C(=O)[C@H](NC(=O)[C@@H](NC(=O)[C@@H](NC(=O)[C@H](NC(=O)CC[C@@H](C)CC)C(C)C)[C@@H](C)O)C(C)C)C(C)C)[C@H](C)CC)[C@H](C)OC(=O)[C@H](C(C)C)NC1=O",
    "recorded number": 1.37
  },
  {
    "compound": "C/C=C1\\NC(=O)[C@H](Cc2ccccc2)N(C)C(=O)[C@@H](C(C)C)NC(=O)[C@@H]([C@H](C)CC)NC(=O)[C@H](NC(=O)[C@H](NC(=O)[C@H](CCCN)NC(=O)[C@H]2CCCN2C(=O)[C@H](NC(=O)[C@@H](NC(=O)[C@@H](NC(=O)[C@H](NC(=O)CC[C@@H](C)CC)C(C)C)[C@@H](C)O)C(C)C)C(C)C)[C@H](C)CC)[C@H](C)OC(=O)[C@H](C(C)C)NC1=O",
    "recorded number": 1.23
  },
  {
    "compound": "C/C=C1\\NC(=O)[C@H](Cc2ccccc2)NC(=O)[C@@H](C(C)C)NC(=O)[C@@H]([C@H](C)CC)NC(=O)[C@H](NC(=O)[C@H](NC(=O)[C@H](CCCN)NC(=O)[C@H]2CCCN2C(=O)[C@H](NC(=O)[C@@H](NC(=O)[C@@H](NC(=O)[C@@H](CC(C)C)NC(=O)CCCC(C)C)[C@@H](C)O)C(C)C)C(C)C)[C@H](C)CC)[C@H](C)OC(=O)[C@H](C(C)C)NC1=O",
    "recorded number": 1.34
  }
]

Query compound follows.
GET /value?item= `C/C=C1\NC(=O)[C@H](Cc2ccccc2)NC(=O)[C@@H](C(C)C)NC(=O)[C@@H]([C@H](C)CC)NC(=O)[C@H](NC(=O)[C@H](NC(=O)[C@H](CCCN)NC(=O)[C@H]2CCCN2C(=O)[C@H](NC(=O)[C@@H](NC(=O)[C@H](CCC(=O)O)NC(=O)[C@H](NC(=O)CCCC(C)C)C(C)C)C(C)C)C(C)C)[C@H](C)CC)[C@H](C)OC(=O)[C@H](C(C)C)NC1=O` &field=GI50 returns 2.48

---

Test: Cytotoxicity against human IGROV-ET cells after 48 hrs by SRB assay
Type: functional
Settings: read-out: LC50 (the source's name)
property label: CC50 (nM)
Quick reminder: number only, in nM, skip the unit.

Consider the following illustrative entries.
[
  {
    "chemical structure": "C/C=C1\\NC(=O)[C@H](Cc2ccccc2)NC(=O)[C@@H](C(C)C)NC(=O)[C@@H]([C@H](C)CC)NC(=O)[C@H](NC(=O)[C@H](NC(=O)[C@H](CCCN)NC(=O)[C@H]2Cc3ccccc3CN2C(=O)[C@H](NC(=O)[C@@H](NC(=O)[C@@H](NC(=O)[C@H](NC(=O)CC[C@@H](C)CC)C(C)C)[C@@H](C)O)C(C)C)C(C)C)[C@H](C)CC)[C@H](C)OC(=O)[C@H](C(C)C)NC1=O",
    "CC50 (nM)": 527
  },
  {
    "chemical structure": "C/C=C1\\NC(=O)[C@H](Cc2cccs2)NC(=O)[C@@H](C(C)C)NC(=O)[C@@H]([C@H](C)CC)NC(=O)[C@H](NC(=O)[C@H](NC(=O)[C@H](CCCN)NC(=O)[C@H]2CCCN2C(=O)[C@H](NC(=O)[C@@H](NC(=O)[C@@H](NC(=O)[C@H](NC(=O)CC[C@@H](C)CC)C(C)C)[C@@H](C)O)C(C)C)C(C)C)[C@H](C)CC)[C@H](C)OC(=O)[C@H](C(C)C)NC1=O",
    "CC50 (nM)": 505
  }
]

GET /value?item= `C/C=C1\NC(=O)[C@H](Cc2ccccc2)NC(=O)[C@@H](C(C)C)NC(=O)[C@@H]([C@H](C)CC)NC(=O)[C@H](NC(=O)[C@H](NC(=O)[C@H](CCCN)NC(=O)[C@H]2CCCN2C(=O)[C@H](NC(=O)[C@@H](NC(=O)[C@@H](NC(=O)[C@H](NC(=O)CCCC(C)C)C(C)C)[C@@H](C)O)C(C)C)C(C)C)[C@H](C)CC)COC(=O)[C@H](C(C)C)NC1=O` &field=CC50 returns 663

GET /value?item= `C/C=C1\NC(=O)[C@H](Cc2ccc(Cl)cc2)NC(=O)[C@@H](C(C)C)NC(=O)[C@@H]([C@H](C)CC)NC(=O)[C@H](NC(=O)[C@H](NC(=O)[C@H](CCCN)NC(=O)[C@H]2CCCN2C(=O)[C@H](NC(=O)[C@@H](NC(=O)[C@@H](NC(=O)[C@H](NC(=O)CCCC(C)C)C(C)C)[C@@H](C)O)C(C)C)C(C)C)[C@H](C)CC)[C@H](C)OC(=O)[C@H](C(C)C)NC1=O` &field=CC50 returns 175

GET /value?item= `C/C=C1\NC(=O)[C@H](Cc2c[nH]c3ccccc23)NC(=O)[C@@H](C(C)C)NC(=O)[C@@H]([C@H](C)CC)NC(=O)[C@H](NC(=O)[C@H](NC(=O)[C@H](CCCN)NC(=O)[C@H]2CCCN2C(=O)[C@H](NC(=O)[C@@H](NC(=O)[C@@H](NC(=O)[C@H](NC(=O)CCCC(C)C)C(C)C)[C@@H](C)O)C(C)C)C(C)C)[C@H](C)CC)[C@H](C)OC(=O)[C@H](C(C)C)NC1=O` &field=CC50 returns 418

---

Item-by-item account of CC50
Test system: PANC-1
Assay: Cytotoxicity against human PANC1 cells after 48 hrs by SRB assay
Format: functional
Conditions: PANC-1, 48 h, read-out: LC50 (the source's name)
Quick reminder: number only, in nM, skip the unit.

Consider the following illustrative entries.
[
  {
    "chemical structure": "C/C=C1\\NC(=O)[C@H](Cc2ccccc2)NC(=O)[C@@H](CCC2CCCCC2)NC(=O)[C@@H](CCC2CCCCC2)NC(=O)[C@H](NC(=O)[C@@H](CCC2CCCCC2)NC(=O)[C@H](CCCN)NC(=O)[C@H]2CCCN2C(=O)[C@H](NC(=O)[C@@H](NC(=O)[C@@H](NC(=O)[C@H](NC(=O)CCCC(C)C)C(C)C)[C@@H](C)O)C(C)C)C(C)C)[C@H](C)OC(=O)[C@H](C(C)C)NC1=O",
    "CC50, nM": 1450
  },
  {
    "chemical structure": "C/C=C1\\NC(=O)[C@H](Cc2ccccc2)NC(=O)[C@@H](C(C)C)NC(=O)[C@@H]([C@H](C)CC)NC(=O)[C@H](NC(=O)[C@H](NC(=O)[C@H](CCCN)NC(=O)[C@H]2CCCN2C(=O)[C@H](NC(=O)[C@@H](NC(=O)[C@@H](NC(=O)CNC(=O)CCCC(C)C)[C@@H](C)O)C(C)C)C(C)C)[C@H](C)CC)[C@H](C)OC(=O)[C@H](C(C)C)NC1=O",
    "CC50, nM": 2110
  },
  {
    "chemical structure": "C/C=C1\\NC(=O)[C@H](Cc2ccccc2)NC(=O)[C@@H](C(C)C)NC(=O)[C@@H]([C@@H](C)CC)NC(=O)[C@H](NC(=O)[C@H](NC(=O)[C@H](CCCN)NC(=O)[C@H]2CCCN2C(=O)[C@H](NC(=O)[C@@H](NC(=O)[C@@H](NC(=O)[C@H](NC(=O)CCCC(C)C)[C@@H](C)O)[C@@H](C)O)C(C)C)C(C)C)[C@@H](C)CC)[C@@H](C)OC(=O)[C@H](C(C)C)NC1=O",
    "CC50, nM": 2810
  }
]

GET /value?item= `C/C=C1\NC(=O)[C@H](Cc2ccc(OC)cc2)NC(=O)[C@@H](C(C)C)NC(=O)[C@@H]([C@H](C)CC)NC(=O)[C@H](NC(=O)[C@H](NC(=O)[C@H](CCCN)NC(=O)[C@H]2CCCN2C(=O)[C@H](NC(=O)[C@@H](NC(=O)[C@@H](NC(=O)[C@H](NC(=O)CC[C@@H](C)CC)C(C)C)[C@@H](C)O)C(C)C)C(C)C)[C@H](C)CC)[C@H](C)OC(=O)[C@H](C(C)C)NC1=O` &field=CC50 returns 1990

GET /value?item= `C/C=C1\NC(=O)[C@H](Cc2ccccc2)NC(=O)[C@@H](C(C)C)NC(=O)[C@@H]([C@H](C)CC)NC(=O)[C@H](NC(=O)[C@H](NC(=O)[C@H](CCCN)NC(=O)[C@H]2CCCN2C(=O)[C@H](NC(=O)[C@@H](NC(=O)[C@@H](NC(=O)[C@H](NC(=O)CCCCCC)C(C)C)[C@@H](C)O)C(C)C)C(C)C)[C@H](C)CC)[C@H](C)OC(=O)[C@H](C(C)C)NC1=O` &field=CC50 returns 2720
